# Assayed target: HCV NS3-4A serine protease (full-length NS3-4A protein) (Hepatitis C virus genotype 1a (isolate 1) (HCV), UniProt P26664)
# Sequence (P26664 1027-1657): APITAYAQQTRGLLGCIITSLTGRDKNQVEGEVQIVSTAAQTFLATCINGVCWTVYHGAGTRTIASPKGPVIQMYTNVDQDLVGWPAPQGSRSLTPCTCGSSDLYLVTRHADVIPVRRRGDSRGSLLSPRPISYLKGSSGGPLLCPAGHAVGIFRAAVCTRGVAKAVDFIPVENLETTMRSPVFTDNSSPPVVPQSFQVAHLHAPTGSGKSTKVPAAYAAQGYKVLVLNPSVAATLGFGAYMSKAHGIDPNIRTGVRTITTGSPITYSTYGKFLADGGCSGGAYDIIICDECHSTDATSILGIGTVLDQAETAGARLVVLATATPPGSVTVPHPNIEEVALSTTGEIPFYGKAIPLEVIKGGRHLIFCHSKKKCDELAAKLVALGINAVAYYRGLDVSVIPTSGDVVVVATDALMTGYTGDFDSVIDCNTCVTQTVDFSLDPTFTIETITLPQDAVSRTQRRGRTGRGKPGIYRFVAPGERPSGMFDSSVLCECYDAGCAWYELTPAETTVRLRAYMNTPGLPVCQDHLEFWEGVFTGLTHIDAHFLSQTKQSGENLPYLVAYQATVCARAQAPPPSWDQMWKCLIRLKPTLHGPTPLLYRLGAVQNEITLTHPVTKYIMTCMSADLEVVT
# Sequence (P26664 1658-1711 partner): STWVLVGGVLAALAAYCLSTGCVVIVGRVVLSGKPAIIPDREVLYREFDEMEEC
# Test name: HCV NS3-4A protease assay
# Test conditions: strain HCV-1, fluorogenic peptide substrate, read-out: Protease assay Ex. 12 IC50
# Protocol: The inhibitory activity of certain compounds of Table A against HCV NS3-4A serine protease is determined in a homogenous assay using the full-length NS3-4A protein (genotype 1a, strain HCV-1) and a commercially available internally-quenched fluorogenic peptide substrate as described by Taliani, M., et al. 1996 Anal. Biochem. 240:60-67, which is incorporated by reference in its entirety.
pIC50: −log10 of the molar value.
The entries below come with measured pIC50 values attached.
Quantity kind: pIC50

• CC[C@@H]1C[C@]1(NC(=O)[C@@H]1C[C@@]2(CN1C(=O)[C@@H](NC(=O)[C@@H](NC(=O)[C@@H]1CCCN1CC)C1CCCCC1)C(C)(C)C)C(C)(C)C21CCC1)C(=O)NS(=O)(=O)N1CCCC1 [Compound 99] = 7.70
• C=C[C@@H]1C[C@]1(NC(=O)[C@@H]1C[C@@]2(CN1C(=O)[C@@H](NC(=O)[C@@H](NC(=O)[C@@H]1CCCCN1CC)C1CCCCC1)C(C)(C)C)C(C)(C)C21CCC1)C(=O)NS(=O)(=O)N1CCCC1 [Compound 37] = 8.48
• C=C[C@@H]1C[C@]1(NC(=O)[C@@H]1C[C@@]2(CN1C(=O)[C@@H](NC(=O)[C@@H](NC(=O)[C@H]1CCCN1C(C)C)C1CCCCC1)C(C)(C)C)C(C)(C)C21CCC1)C(=O)NS(=O)(=O)N1CCCC1 [Compound 16] = 8.64
• C=C[C@@H]1C[C@]1(NC(=O)[C@@H]1C[C@@]2(CN1C(=O)[C@@H](NC(=O)[C@@H](NC(=O)[C@@H]1CCCCN1C(C)C)C1CCCCC1)C(C)(C)C)C(C)(C)C21CCC1)C(=O)NS(=O)(=O)N(C)CC(F)F [Compound 83] = 8.70

Numbers sourced from patent US8613914B2.
